Where do the numbers come from? From the Human Domainome abundance scans (Beltran et al. 2025).

Recorded measurements of abundance fitness, one per entry
B1: Transitional endoplasmic reticulum ATPase, residues 26 to 106; numbered along this chain, P55072 (parent)
chain: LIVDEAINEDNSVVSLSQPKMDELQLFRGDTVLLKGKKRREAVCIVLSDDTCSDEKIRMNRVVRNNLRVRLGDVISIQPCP

Variants of: B1
Assay: abundance fitness (aPCA) (normalised: wild type 0, dead -1); higher = more abundant; growth selection in yeast, the domain comes from the species named
Conditions: Homo sapiens
Respond using a number only.

| Variant Annotation | Assay Result |
| --- | --- |
| L16G | -0.895 |

I'd like to know its abundance fitness. The variant in question is D54H -0.073

I'd like to know its abundance fitness. The variant in question is S12V -0.067

I'd like to know its abundance fitness. The variant in question is D10S -0.14

I'd like to know its abundance fitness. The variant in question is E23Q -0.104

I'd like to know its abundance fitness. The variant in question is D4M -0.041

I'd like to know its abundance fitness. The variant in question is L26I -0.078

I'd like to know its abundance fitness. The variant in question is V69W -0.987

I'd like to know its abundance fitness. The variant in question is I77R -0.91

I'd like to know its abundance fitness. The variant in question is L47W -0.07
